system: Replicon cells; experiment: cells; settings: read-out: Cytostatic (IC50)
pIC50: −log10 of the molar value.
Listing of recorded pIC50 by entry.

molecule: COCc1c(C(C)C)nc(C(C)C)c(/C=C/[C@@H](O)C[C@@H](O)CC(=O)O)c1-c1ccc(F)cc1 [Cerivastatin]
pIC50: 5.26
--
molecule: CC(C)c1c(C(=O)Nc2ccccc2)c(-c2ccccc2)c(-c2ccc(F)cc2)n1CC[C@@H](O)C[C@@H](O)CC(=O)O (relative stereo) [Atorvastatin]
pIC50: 5.60
--
molecule: CCC(C)(C)C(=O)O[C@H]1C[C@@H](C)C=C2C=C[C@H](C)[C@H](CC[C@@H]3C[C@@H](O)CC(=O)O3)[C@H]21 [Simvastatin]
pIC50: 4.55
--
molecule: CC[C@H](C)C(=O)O[C@H]1C[C@@H](C)C=C2C=C[C@H](C)[C@H](CC[C@@H]3C[C@@H](O)CC(=O)O3)[C@H]21 [Lovastatin]
pIC50: 4.05

---

IC50 at 72 h reference
assay: in vitro; conditions: replicon cells (lucubineo cells)
observable: IC50 at 72 h

smilesInput: CCC(C)(C)C(=O)O[C@H]1C[C@@H](C)C=C2C=C[C@H](C)[C@H](CC[C@@H]3C[C@@H](O)CC(=O)O3)[C@H]21
endpointValue: 64.7 µM
--
smilesInput: COCc1c(C(C)C)nc(C(C)C)c(/C=C/[C@@H](O)C[C@@H](O)CC(=O)O)c1-c1ccc(F)cc1
endpointValue: 4.9 µM
--
smilesInput: CC[C@H](C)C(=O)O[C@H]1C[C@@H](C)C=C2C=C[C@H](C)[C@H](CC[C@@H]3C[C@@H](O)CC(=O)O3)[C@H]21
endpointValue: 158 µM

Values were extracted from patent US20050085528A1.
